Sourced from patent US5886000A

# system_under_test: Tat (Human immunodeficiency virus type 1 group M subtype B, UniProt P04608)
# Construct: expressed in transfected cells; host or cells: COS-7 cells
# Sequence (P04608 whole entry): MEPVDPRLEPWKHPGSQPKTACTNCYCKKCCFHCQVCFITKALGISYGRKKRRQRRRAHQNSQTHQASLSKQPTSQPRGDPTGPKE
# experiment: Tat-inhibiting effect (reporter plasmid and Tat activator plasmid cotransfected into COS-7 cells)
# Format: cell-based, HIV
# measurement_setup: COS-7; 250 μM; control = 100; read-out: Specific activity (%) (Average ± SE)
// reported activity at 250 µM per item
measured_metric: activity at 250 µM (%)

N[C@@H](CCC(=O)N[C@@H](CS)C(=O)NCC(=O)O)C(=O)O :: 110
CC(=C(CCO)SSC(CCO)=C(C)N(C=O)Cc1cnc(C)nc1N)N(C=O)Cc1cnc(C)nc1N [Thiamine disulfide, thiamine disulfide] :: 64.4
CC(=O)N[C@@H](CS)C(=O)O :: 92
O=C(O)CCCCC1CCSS1 (stereo not shown) :: 17.5
